meta.source: ChEMBL document CHEMBL3046569

Tested on: Human immunodeficiency virus 1
Assay: Antiviral activity against Human immunodeficiency virus 1 infected human H9 cells assessed as inhibition of viral replication
Assay type: functional, organism-based
Settings: Human immunodeficiency virus 1, H9; read-out: pEC50 (converted)
Field 'label' (enum: Met / Not met). Set to Met when EC50 is strictly under 5 nM; else Not met.

Compound	Class
CC(C)[C@@H]1CC[C@]2(COC(=O)CC(C)(C)CC(=O)O)CC[C@]3(C)[C@H](CC[C@@H]4[C@@]5(C)CC[C@H](OC(=O)CC(C)(C)CC(=O)O)C(C)(C)[C@@H]5CC[C@]43C)[C@@H]12	Met
C=C(C)[C@@H]1CC[C@]2(COC(=O)CCC(=O)O)CC[C@]3(C)[C@H](CC[C@@H]4[C@@]5(C)CC[C@H](OC(=O)CCC(=O)O)C(C)(C)[C@@H]5CC[C@]43C)[C@@H]12	Not met
C=C(C)[C@@H]1CC[C@]2(C(=O)O)CC[C@]3(C)[C@H](CC[C@@H]4[C@@]5(C)CC[C@H](O)C(C)(C)[C@@H]5CC[C@]43C)[C@@H]12 (stereo in doubt; 8) [BETULINIC ACID]	Not met
C=C(C)[C@@H]1CC[C@]2(COC(=O)CC(C)CC(=O)O)CC[C@]3(C)[C@H](CC[C@@H]4[C@@]5(C)CC[C@H](OC(=O)CC(C)CC(=O)O)C(C)(C)[C@@H]5CC[C@]43C)[C@@H]12 (some centres undefined)	Met
CC(C)[C@@H]1CC[C@]2(COC(=O)CCCC(=O)O)CC[C@]3(C)[C@H](CC[C@@H]4[C@@]5(C)CC[C@H](OC(=O)CCCC(=O)O)C(C)(C)[C@@H]5CC[C@]43C)[C@@H]12	Not met
C=C(CO)[C@@H]1CC[C@]2(CO)CC[C@]3(C)[C@H](CC[C@@H]4[C@@]5(C)CC[C@H](O)C(C)(C)[C@@H]5CC[C@]43C)[C@@H]12 [30-HYDROXY-BETULIN]	Not met
CC(C)[C@@H]1CC[C@]2(C(=O)OCc3ccccc3)CC[C@]3(C)[C@H](CC[C@@H]4[C@@]5(C)CC[C@H](OC(=O)CCCC(=O)O)C(C)(C)[C@@H]5CC[C@]43C)[C@@H]12	Not met
CC(C)[C@@H]1CC[C@]2(C(=O)O)CC[C@]3(C)[C@H](CC[C@@H]4[C@@]5(C)CC[C@H](OC(=O)CC(C)(C)C(=O)O)C(C)(C)[C@@H]5CC[C@]43C)[C@@H]12	Met
C=C(C)[C@@H]1CC[C@]2(COC(=O)CC(C)(CC)CC(=O)O)CC[C@]3(C)[C@H](CC[C@@H]4[C@@]5(C)CC[C@H](OC(=O)CC(C)(CC)CC(=O)O)C(C)(C)[C@@H]5CC[C@]43C)[C@@H]12 (some centres undefined)	Not met
